Assay System: GST-ANAC092(1-285) full length (Arabidopsis thaliana, UniProt Q9FKA0 1-285)
Sequence: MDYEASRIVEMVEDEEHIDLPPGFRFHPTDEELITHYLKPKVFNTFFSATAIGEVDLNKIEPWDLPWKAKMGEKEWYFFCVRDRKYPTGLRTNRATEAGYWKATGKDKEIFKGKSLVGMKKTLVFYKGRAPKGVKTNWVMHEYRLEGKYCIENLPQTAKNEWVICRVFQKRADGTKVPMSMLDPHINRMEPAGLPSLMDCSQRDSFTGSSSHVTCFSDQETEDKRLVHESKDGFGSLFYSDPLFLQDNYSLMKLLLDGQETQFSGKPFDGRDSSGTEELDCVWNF
Assay: universal protein binding microarray (PBM); high values mean tight binding
Condition Details: protein: recombinant; tags: GST; chain copies: 2; dsDNA, one strand shown
Simple rule here: binding signal less than 0.4 E-score is y, otherwise n.

ACACGCTA    n
ATGGCGTA    n
ACGGAACA    y
GTTGAGTA    y
AGTCAAGG    y
CAGTCAAA    y
ATTTCGTG    n
AGCGTCAA    y
TACGGCAA    n
TCAAGTCA    y
TAAAGTCA    y
ACGCCATC    n
GTAACTTA    y
GGACGCAA    n
AACACGCA    n
CCACGCAA    n
AGGGTAAT    y
GGTCAATA    y

====

Assay System: GST-ATAF1 NAC domain (Arabidopsis thaliana, UniProt Q39013 7-158)
Sequence: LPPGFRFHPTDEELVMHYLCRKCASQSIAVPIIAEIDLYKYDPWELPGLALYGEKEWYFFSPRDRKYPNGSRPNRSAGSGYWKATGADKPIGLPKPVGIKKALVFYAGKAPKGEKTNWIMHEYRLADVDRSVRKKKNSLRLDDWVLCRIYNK
Assay: universal protein binding microarray (PBM); high values mean tight binding
Condition Details: protein: recombinant; tags: GST; chain copies: 2; dsDNA, one strand shown
Reported Metric: binding signal (E-score)

GCGTGTAA    0.201
GCAAGAAA    0.189
CAGTCAAC    0.084
AGTTGACG    0.213
AACGTACG    0.326
GCACGGTA    0.134
GCACTCAA    0.0807
TACGGCAA    0.381
CACGTCAA    0.248
ACAGTCAA    0.081
ACACGTAT    0.312
ACGTTTCC    0.327
AAGTAAAG    0.189
ATAGCGTA    0.165
TAGCGTAA    0.281
GCACGAAA    0.165
GAAGTAAC    0.0921
CAAGGAAA    0.167
TTACGGAA    0.404
CACGGAAC    0.397
AAGCAAAC    0.137
CTTACTTA    0.154
ATAGCGTG    0.128
CTAAGTAA    0.107
GCGTGCAC    0.154
TAAGGTCA    0.094
AGCGTCAA    0.0689
CTTACGTA    0.407
AAATACGT    0.346
AGCGTAAA    0.12
ACACGTCT    0.393
TACGCGAA    0.119
ATGACGTG    0.317
AAACGTGT    0.339
TAAGTCAA    0.208

====

Assay System: GST-NTL8 NAC domain (Arabidopsis thaliana, UniProt Q9XIN7 14-156)
Sequence: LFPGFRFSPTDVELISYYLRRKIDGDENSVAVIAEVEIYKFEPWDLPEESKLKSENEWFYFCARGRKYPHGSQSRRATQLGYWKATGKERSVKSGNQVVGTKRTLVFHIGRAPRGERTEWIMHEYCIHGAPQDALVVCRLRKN
Assay: universal protein binding microarray (PBM); high values mean tight binding
Condition Details: protein: recombinant; tags: GST; chain copies: 2; dsDNA, one strand shown
Here the recorded binding signal is given for each entry.
Reported Metric: binding signal (E-score)

AGGGTAAC    0.416
ACGCAAAT    0.0579
CTTGACCC    0.0908
AAACCCTC    0.414
AAAGGTCA    0.154
CCTTTCCC    0.421
AAGTAATA    0.211
AAGGAAAT    0.466
CCCTTGAC    0.151
CCACGCAA    0.0836
ACCTTTCC    0.431
TGCCGTAA    0.324
GAAACGTA    0.288
TACGCAAA    0.0978
CCACGTAA    0.167
GTTTCCTA    0.404
GGAAGTCA    0.0895
GTTGCGTA    0.216
GTCAAAAC    0.0569
ACGCAAGG    0.152
AGGTCAAC    0.0726
GAAGGTCA    0.0878
CTTAAGGA    0.179
GCAAGTAA    0.264
GTTTCGTA    0.0561
CAGTCAAG    0.0503
GTCAACAA    0.0573
CACACGCA    0.141
AGGGAAAG    0.473
GAAGTAAA    0.222
GCAAGCAA    0.0916
ACGCTACT    0.0894
AAGCAACC    0.301
TTAAGTAA    0.34
ACGTAAGC    0.205
CTTGCTTA    0.194
TCACGCAA    0.177
GGGGGTAA    0.403
CACGTAAG    0.17
AGGTTTCC    0.457
ACGTTACC    0.384
ACTAGTCA    0.128
AGGGAAAA    0.416
ATTTCCCC    0.428
ACGTAAAG    0.0757
ATTGCTTC    0.278
ACTTAACC    0.243
GTGAAGAA    0.403
ATACGCAA    0.172
CTTGCTTC    0.303
AAGGTCAA    0.0854
AGACACGC    0.0629
ATTACTTC    0.406
ACGTCTCC    0.052
AAGTTACC    0.376
ACGGAACC    0.172
ACGCAACT    0.0824
GTAGGTCA    0.0647
GACCGGAA    0.0847
CTTTCCTC    0.453
ATTGACCA    0.163
GGAGGTAA    0.435
TGAAGTCA    0.165
ACCTTAAC    0.16
ATTCCCTC    0.421
ACAGTCAA    0.164
AGCGTAAG    0.0559
ACGGAACT    0.109
AAGTAAGC    0.337
AAGTAATC    0.328
ACGTAACC    0.328
CGGTCAAA    0.0552
CAAGTAAC    0.185
ACGCAACC    0.146
ACGTTACT    0.233
GAAGTCAA    0.0673
TACCTTAA    0.298
TTAAGAAA    0.273
ACTTGACC    0.0948
CAAGGAAA    0.46
GGTCAAAA    0.116
GCGAAGAC    0.109
GTACGAAA    0.116
CACGTTAC    0.0995
CCACGGAA    0.107
ACACGACA    0.0912
CTACGCAA    0.126
AAGGTCAG    0.0579
ACAAGTCA    0.0517
GAAGAAAC    0.423
GAAGTAAC    0.413

====

Assay System: GST-VND3 NAC domain (Arabidopsis thaliana, UniProt Q9FH59 12-162)
Sequence: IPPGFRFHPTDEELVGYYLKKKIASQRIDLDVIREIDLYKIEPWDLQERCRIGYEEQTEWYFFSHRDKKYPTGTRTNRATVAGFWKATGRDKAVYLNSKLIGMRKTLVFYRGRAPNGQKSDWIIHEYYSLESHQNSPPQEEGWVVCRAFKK
Assay: universal protein binding microarray (PBM); transcription factors of Arabidopsis thaliana; high values mean tight binding
Condition Details: protein: recombinant; tags: GST; chain copies: 2; dsDNA, one strand shown
Reported Metric: binding signal (E-score)

AATACGCA    0.314
GTGGCGTA    0.138
ATTTCCCC    0.205
AAATACGT    0.408
AAGTCTAC    0.0561
ACGGAAAC    0.349
ATTGCTTA    0.16
ATACTTAA    0.187
AAGGGAAA    0.0609
TGACGTAA    0.406
GCAAGGAA    0.187
AACACGCT    0.0943
CTTGACCA    0.119
TTAAGGAA    0.24
GACACGCA    0.208
ACGTAAAG    0.359
GCCGTGTA    0.347
GCGTAATA    0.203
GAAGGAAC    0.114
TCTGGTCA    0.059
ACACTCCA    0.0605
TCACGTAA    0.441
ATTGCTTC    0.143
ACGTACGC    0.252
AAGGAAAT    0.144
GACGTAAC    0.367
TTAAGTAA    0.17
TACGCAAA    0.405
TCACGTCA    0.322
AAAGTCGT    0.145
ATAAGTCA    0.105
AAGTCAAA    0.0889
AATTCCGT    0.414
TGGCGTAA    0.191
ATACGGCA    0.414
ATACGGAA    0.371
ATAACGTG    0.191
CGTACGCA    0.378
CACGTAAC    0.44
AATTACGC    0.119
GAAAGGAA    0.209
ATGACGTA    0.437
AACACGCC    0.1
GTTAAGGA    0.176
AATGCCGT    0.407
AATGCGTA    0.148
GCGTATAA    0.213
ACACGGCA    0.463
GCACGCTA    0.111
ATTACGCA    0.265
GTCAATTA    0.104
GATACGTA    0.405
AAAAAGTC    0.0942
ACGCTACA    0.101
ACAGTCAA    0.0711
AAAGCAAC    0.0501
CTAGTCAA    0.166
TTAGTCAA    0.11
GGCGTGTA    0.118
AAACACGC    0.201
GTTACTTA    0.263
CTTGCGTA    0.416
CACGAAAG    0.191
CACGCTTC    0.111
GAGGAAAA    0.12
ACGTTATC    0.208
GCACGAAA    0.173
CACACGCA    0.375
GGATTGAC    0.094
ACGCAACT    0.462
AACTTGAC    0.152
AGTCGTGC    0.324
GTTACGTA    0.471
TGACTCAA    0.113
CATGGTCA    0.0588
AAGGTAAC    0.154
GTAACTTA    0.195
TAGAGTAA    0.117
GTACGTTA    0.253
CTTGACTC    0.0677
GCGTGTGA    0.14
TACGTAAA    0.421
ACGTTACG    0.333
ACGCAAAT    0.325
CTTAAGTA    0.218
ATACGTTA    0.274
TTAAGCAA    0.198
ATGGTCAA    0.138
GTTCCGTA    0.375
CACGTTAA    0.184
AGTCAACA    0.13
